- SYSTEM_TESTED: E. coli ParE enzyme (Escherichia coli)
- Construct: purchased ProFoldin, Hudson, United States
- Sequence (P20083 whole entry): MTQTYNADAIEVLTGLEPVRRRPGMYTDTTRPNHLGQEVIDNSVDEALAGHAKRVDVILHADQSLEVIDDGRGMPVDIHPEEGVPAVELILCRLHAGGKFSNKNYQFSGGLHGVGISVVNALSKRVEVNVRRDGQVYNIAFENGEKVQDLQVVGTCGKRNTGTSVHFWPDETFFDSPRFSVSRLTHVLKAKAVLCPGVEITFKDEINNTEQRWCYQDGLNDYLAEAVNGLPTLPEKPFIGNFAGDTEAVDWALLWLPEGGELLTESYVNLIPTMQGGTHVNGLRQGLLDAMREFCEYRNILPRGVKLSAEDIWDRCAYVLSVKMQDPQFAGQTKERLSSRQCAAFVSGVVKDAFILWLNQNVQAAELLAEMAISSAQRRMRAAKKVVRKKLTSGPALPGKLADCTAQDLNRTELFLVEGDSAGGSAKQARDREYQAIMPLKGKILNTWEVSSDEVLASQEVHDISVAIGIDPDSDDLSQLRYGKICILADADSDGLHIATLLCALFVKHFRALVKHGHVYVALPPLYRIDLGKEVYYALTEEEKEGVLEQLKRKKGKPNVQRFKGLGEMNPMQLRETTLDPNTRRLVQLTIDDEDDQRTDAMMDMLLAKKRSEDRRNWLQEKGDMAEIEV
- Sequence (P0AFI2 whole entry, further chain): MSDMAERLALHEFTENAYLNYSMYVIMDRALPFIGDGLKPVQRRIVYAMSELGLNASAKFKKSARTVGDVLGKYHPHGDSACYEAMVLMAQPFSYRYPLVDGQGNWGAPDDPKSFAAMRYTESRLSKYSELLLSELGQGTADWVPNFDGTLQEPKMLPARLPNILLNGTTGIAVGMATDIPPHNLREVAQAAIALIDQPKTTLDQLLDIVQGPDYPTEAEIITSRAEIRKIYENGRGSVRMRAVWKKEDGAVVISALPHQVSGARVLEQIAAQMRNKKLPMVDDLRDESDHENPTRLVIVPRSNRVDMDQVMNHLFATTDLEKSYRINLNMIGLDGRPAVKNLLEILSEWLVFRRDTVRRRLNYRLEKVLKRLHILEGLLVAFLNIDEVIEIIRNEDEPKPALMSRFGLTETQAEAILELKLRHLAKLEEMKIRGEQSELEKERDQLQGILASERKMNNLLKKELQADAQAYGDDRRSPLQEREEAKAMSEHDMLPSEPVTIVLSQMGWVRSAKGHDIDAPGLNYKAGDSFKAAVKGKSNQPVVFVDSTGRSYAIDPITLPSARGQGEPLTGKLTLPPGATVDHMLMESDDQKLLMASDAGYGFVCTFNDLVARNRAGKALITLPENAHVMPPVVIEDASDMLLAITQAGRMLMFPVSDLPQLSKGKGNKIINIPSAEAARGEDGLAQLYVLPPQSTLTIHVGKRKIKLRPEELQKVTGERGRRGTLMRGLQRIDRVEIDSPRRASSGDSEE
- EXPERIMENTAL_DETAILS: E. coli ParE ATPase enzyme inhibition assay (ProFoldin kit, malachite green)
- Type: biochemical
- TEST_SETTINGS: ATPase activity, mean ± SD (n = 3)
MEASURED_METRIC: IC50 against E. coli ParE enzyme (µg/mL)
Reply numerically in µg/mL, unit not repeated.

| SMILES_RECORD | IC50 against E. coli ParE enzyme, µg/mL |
| --- | --- |
| O=C(COc1ccc2ccccc2c1)Nc1ccc(Cl)cc1 | 2.77 |

**Query** IC50 against E. coli ParE enzyme of "Cc1cccc([N+](=O)[O-])c1NC(=O)COc1ccccc1NC(=O)CCl" on E. coli ParE enzyme (Escherichia coli)?
**Result** 0.95

**Query** IC50 against E. coli ParE enzyme of "Cc1ccc(C(=O)NNC(=O)COc2ccccc2NC(=O)CCl)cc1" on E. coli ParE enzyme (Escherichia coli)?
**Result** 2.34

**Query** IC50 against E. coli ParE enzyme of "COc1ccc(OCC(=O)Nc2ccc(Cl)cc2)cc1" on E. coli ParE enzyme (Escherichia coli)?
**Result** 1.93

* * *

- Tested on: MRSA (NCIM 5021)
- EXPERIMENTAL_DETAILS: Minimum bactericidal concentration (MBC)
- Format: cell-based, methicillin-resistant Staphylococcus aureus
MEASURED_METRIC: MBC

Below, 3 molecules whose answers are already recorded.
| SMILES_RECORD | SYSTEM_TESTED | MEASURED_METRIC | RESULT |
| --- | --- | --- | --- |
| O=C(COc1ccccc1NC(=O)CCl)Nc1cc(Cl)c(Cl)cc1Cl | MRSA (NCIM 5021) | MBC | 7.18 ± 0.15 µg/mL |
| O=C(COc1ccccc1NC(=O)CCl)Nc1ccc(C(=O)O)cc1Br | MRSA (NCIM 5021) | MBC | 1.54 ± 0.11 µg/mL |
| Cc1ccc(C(=O)NNC(=O)COc2ccccc2NC(=O)CCl)cc1 | MRSA (NCIM 5021) | MBC | 4.4 ± 0.15 µg/mL |

**Query** Fill blank: measured MBC of the molecule "COc1ccc(OCC(=O)Nc2ccc(Cl)cc2)cc1" is ____.
**Result** 10.62 ± 0.44 µg/mL

**Query** Fill blank: measured MBC of the molecule "O=C(COc1ccccc1NC(=O)CCl)Nc1ccccc1" is ____.
**Result** 4.70 ± 0.41 µg/mL

**Query** Fill blank: measured MBC of the molecule "O=C(CNc1nc2ccccc2s1)Nc1ccccc1" is ____.
**Result** 0.86 ± 0.13 µg/mL

**Query** Fill blank: measured MBC of the molecule "O=C(COc1ccccc1NC(=O)CCl)Nc1ccc(C(=O)O)cc1" is ____.
**Result** 1.84 ± 0.13 µg/mL

**Query** Fill blank: measured MBC of the molecule "O=C(COc1ccccc1NC(=O)CCl)Nc1ccc([N+](=O)[O-])cc1" is ____.
**Result** 0.84 ± 0.13 µg/mL

**Query** Fill blank: measured MBC of the molecule "O=C(CSc1nc2ccccc2s1)Nc1ccccc1" is ____.
**Result** 0.94 ± 0.04 µg/mL

**Query** Fill blank: measured MBC of the molecule "O=C(COc1ccccc1NC(=O)CCl)Nc1ccc(S(=O)(=O)O)cc1" is ____.
**Result** 7.39 ± 0.18 µg/mL

**Query** Fill blank: measured MBC of the molecule "COc1ccc(OCC(=O)Nc2ccc(C(=O)O)cc2)cc1" is ____.
**Result** 3.55 ± 0.07 µg/mL

**Query** Fill blank: measured MBC of the molecule "O=C(COc1ccccc1NC(=O)CCl)Nc1cccc(Cl)c1" is ____.
**Result** 0.82 ± 0.03 µg/mL

**Query** Fill blank: measured MBC of the molecule "Cc1ccc(S(=O)(=O)NC(=O)COc2ccccc2NC(=O)CCl)cc1" is ____.
**Result** 1.81 ± 0.40 µg/mL

**Query** Fill blank: measured MBC of the molecule "O=C(COc1ccccc1NC(=O)CCl)NNc1ccc([N+](=O)[O-])cc1[N+](=O)[O-]" is ____.
**Result** 7.46 ± 0.05 µg/mL

**Query** Fill blank: measured MBC of the molecule "Cc1ccc(C(=O)NNC(=O)COc2ccc3ccccc3c2)cc1" is ____.
**Result** 0.90 ± 0.04 µg/mL

**Query** Fill blank: measured MBC of the molecule "Cc1cccc([N+](=O)[O-])c1NC(=O)COc1ccccc1NC(=O)CCl" is ____.
**Result** 8.00 ± 0.04 µg/mL

* * *

- EXPERIMENTAL_DETAILS: In vitro cytotoxicity MTT assay
- TEST_SETTINGS: African green monkey, Vero cells
MEASURED_METRIC: CC50 at 48 h (µg/mL)
Reply numerically in µg/mL, unit not repeated.

**Query** Fill blank: measured CC50 at 48 h of the compound O=C(CSc1nc2ccccc2s1)Nc1ccc(C(=O)O)cc1[N+](=O)[O-] [Compound 25] is ____.
**Result** 194

**Query** Fill blank: measured CC50 at 48 h of the compound O=C(CCl)Nc1ccccc1OCC(=O)Nc1ccc(C(=O)O)cc1[N+](=O)[O-] [Compound 8] is ____.
**Result** 257

* * *

- System: MRSA (NCIM 5021)
- EXPERIMENTAL_DETAILS: Minimum bactericidal concentration (MBC)
- Format: cell-based, methicillin-resistant Staphylococcus aureus
MEASURED_METRIC: MBC/MIC
Please reply with the value in numeric form only.

Below, 5 compounds whose answers are already recorded.
| SMILES_RECORD | NUMERIC_RESULT |
| --- | --- |
| O=C(COc1ccccc1NC(=O)CCl)Nc1ccc(Cl)cc1 | 2 |
| O=C(CSc1nc2ccccc2s1)Nc1ccc([N+](=O)[O-])cc1 | 1 |
| Cc1ccc(C(=O)NNC(=O)COc2ccc3ccccc3c2)cc1 | 1 |
| O=C(COc1ccccc1NC(=O)CCl)Nc1cc(Cl)c(Cl)cc1Cl | 4 |
| O=C(CSc1nc2ccccc2s1)Nc1ccccc1 | 1 |

**Query** Fill blank: measured MBC/MIC of the compound "Cc1ccc(S(=O)(=O)NC(=O)COc2ccccc2NC(=O)CCl)cc1" is ____.
**Result** 1

**Query** Fill blank: measured MBC/MIC of the compound "O=C(CCl)Nc1ccccc1OCC(=O)Nc1ccc(C(=O)O)cc1[N+](=O)[O-]" is ____.
**Result** 1

**Query** Fill blank: measured MBC/MIC of the compound "O=C(CNc1nc2ccccc2s1)Nc1ccccc1" is ____.
**Result** 1

**Query** Fill blank: measured MBC/MIC of the compound "Cc1cccc([N+](=O)[O-])c1NC(=O)COc1ccccc1NC(=O)CCl" is ____.
**Result** 3

* * *

A collection of molecules and their measured ΣFIC A + FIC B
- Tested on: E. coli
- EXPERIMENTAL_DETAILS: Checkerboard synergy with FDA approved drugs
- Type: cell-based, Escherichia coli
- TEST_SETTINGS: drug combined with compound 21
Please reply with the value in numeric form only.

| MOLECULE | SYSTEM_TESTED | ΣFIC A + FIC B |
| --- | --- | --- |
| O=C(O)c1cn(C2CC2)c2cc(N3CCNCC3)c(F)cc2c1=O | E. coli | 0.3614 |
| CNC(C)C1CCC(N)C(OC2C(N)CC(N)C(OC3OCC(C)(O)C(NC)C3O)C2O)O1 (stereo not shown) | E. coli | 0.3417 |
| CO[C@H]1/C=C/O[C@@]2(C)Oc3c(C)c(O)c4c(O)c(c(/C=N/N5CCN(C)CC5)c(O)c4c3C2=O)NC(=O)/C(C)=C\C=C\[C@H](C)[C@H](O)[C@@H](C)[C@@H](O)[C@@H](C)[C@H](OC(C)=O)[C@@H]1C | E. coli | 0.3223 |

Now look at this one.
**Query** ΣFIC A + FIC B of "C[C@H]1c2cccc(O)c2C(=O)C2=C(O)[C@]3(O)C(=O)C(C(N)=O)=C(O)[C@@H](N(C)C)[C@@H]3[C@@H](O)[C@@H]21" on E. coli?
**Result** 0.2075

* * *

# CC50 measurements, system: Vero cells
Reply numerically in µg/mL, unit not repeated.

Below, 3 molecules whose answers are already recorded.
| SMILES_RECORD | MEASURED_METRIC | NUMERIC_RESULT |
| --- | --- | --- |
| Cc1cccc([N+](=O)[O-])c1NC(=O)COc1ccccc1NC(=O)CCl | CC50 | 163.9911 |
| O=C(COc1ccccc1NC(=O)CCl)Nc1ccc([N+](=O)[O-])cc1 | CC50 | 213.9002 |
| O=C(COc1ccccc1NC(=O)CCl)NNc1ccc([N+](=O)[O-])cc1[N+](=O)[O-] | CC50 | 150.8056 |

Now look at this one.
**Query** CC50 of "O=C(COc1ccccc1NC(=O)CCl)Nc1ccc(C(=O)O)cc1" on Vero cells?
**Result** 178.8742
